These measurements were taken from ChEMBL document CHEMBL1154649.

# Assay: Drug level in Sprague-Dawley rat blood at 10 mg/kg, ig after 4 hrs
# Assay type: ADME, organism-based
# Set-up: dose 10 mg/kg, route intragastric
# Recorded Conditions: po, read-out: Drug uptake
Assay Endpoint: concentration at 4 h (ng/mL)
Unit ng/mL implied. Number only.

Record request: concentration at 4 h value, item CC(=O)O[C@@H](C[C@@H](C)C1=C2C[C@H](OC(C)=O)[C@H]3[C@@]4(C)CCC(=O)C(C)(C)[C@@H]4CC[C@]3(C)[C@@]2(C)CC1)[C@@H](OC(C)=O)C(C)(C)OC(C)=O
55.9

###

# Assay: Drug level in Sprague-Dawley rat blood at 10 mg/kg, ig after 0.25 hrs
# Format: ADME, organism-based
# Parameters: dose 10 mg/kg, route intragastric
# Recorded Conditions: po, read-out: Drug uptake
Assay Endpoint: concentration at 0.25 h (ng/mL)
Reply with just the number (in ng/mL).

Can you look up the measured concentration at 0.25 h of CC(=O)O[C@@H](C[C@@H](C)C1=C2C[C@H](OC(C)=O)[C@H]3[C@@]4(C)CCC(=O)C(C)(C)[C@@H]4CC[C@]3(C)[C@@]2(C)CC1)[C@@H](OC(C)=O)C(C)(C)OC(C)=O for me?
70
